Test system: OVCAR-5
Assay: NCI tumour cell line growth inhibition, 48 h
Activity calls are given as the source filed them. Cut-off read from the data, not from the text of the source: active = GI50 up to about 1.1 µM and inactive = higher.
READOUT NAME: GI50

Ask: Param readout= GI50; system= OVCAR-5; entry= CC1=NN(c2nc(N)nc(CBr)n2)C(C)(C)C1 ; returns value.
Reply: 3.71 µM (inactive)

Ask: Param readout= GI50; system= OVCAR-5; entry= Cc1cc(C)n(C(=O)CSc2nc3ccc(I)cc3c(=O)n2Cc2ccccc2)n1 ; returns value.
Reply: > 100 µM (inactive)

Ask: Param readout= GI50; system= OVCAR-5; entry= CCOP(=O)(OCC)C(Nc1cccc(F)c1)c1ccc(N(C)C)cc1 (stereo not drawn) ; returns value.
Reply: > 100 µM (inactive)

Ask: Param readout= GI50; system= OVCAR-5; entry= O=C1C(=C(I)I)c2ccccc2-c2ccccc21 ; returns value.
Reply: 5.47 µM (inactive)

Ask: Param readout= GI50; system= OVCAR-5; entry= N=C(N)SCc1cc(Cl)cc(Cl)c1O ; returns value.
Reply: 16.3 µM (inactive)

Ask: Param readout= GI50; system= OVCAR-5; entry= C=CCOc1cccc(C2(O)c3ccccc3C3=NCCCN32)c1 (stereo not drawn) ; returns value.
Reply: 29.7 µM (inactive)

Ask: Param readout= GI50; system= OVCAR-5; entry= OCC1C(/C=C/c2ccoc2)ON2CCCC12 (stereo not drawn) ; returns value.
Reply: > 100 µM (inactive)

Ask: Param readout= GI50; system= OVCAR-5; entry= O=C(OCC1CO1)c1cccs1 (stereo not drawn) ; returns value.
Reply: > 100 µM (inactive)
